Molecular target: UniProtKB P08908
Sequence (P08908 1-422): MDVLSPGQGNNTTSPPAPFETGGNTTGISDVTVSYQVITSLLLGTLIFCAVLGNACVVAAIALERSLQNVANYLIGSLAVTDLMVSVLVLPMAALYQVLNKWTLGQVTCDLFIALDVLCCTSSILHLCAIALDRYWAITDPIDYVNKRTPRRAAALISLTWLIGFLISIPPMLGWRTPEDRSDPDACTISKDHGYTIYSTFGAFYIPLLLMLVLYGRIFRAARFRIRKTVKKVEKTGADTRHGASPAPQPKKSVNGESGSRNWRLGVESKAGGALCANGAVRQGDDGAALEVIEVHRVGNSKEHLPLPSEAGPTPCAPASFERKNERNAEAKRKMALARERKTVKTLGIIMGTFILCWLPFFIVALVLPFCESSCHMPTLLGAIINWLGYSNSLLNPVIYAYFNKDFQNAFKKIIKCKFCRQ
QUANTITY: pIC50
Here pIC50 is given on a logarithmic scale as minus log10 of the concentration in mol/L.

As a guide, the following entries are already answered.
C1=C(c2csc3ccccc23)CCN(CC2COc3ccc4ncccc4c3O2)C1 (stereo not shown) [Example 6]: 6.84
Cc1ccc2c3c(ccc2n1)OCC(CN1CCC(c2nc4ccccc4o2)CC1)O3 (stereo not shown) [Example 14]: 6.78
Cc1ccc2c3c(ccc2n1)OCC(CN1CC=C(c2csc4ccc(Cl)cc24)CC1)O3 (stereo not shown) [Example 13]: 5.60

Could you tell me which pIC50 is on file for Cc1nc2ccc3c(c2o1)OC(CN1CC=C(c2csc4ccccc24)CC1)CO3 (stereo not shown) [Example 9] ? 5.70

====

molecular target: cloned human 5-HT1A receptors (Homo sapiens, UniProt P08908)
# pIC50 listing for each entry below
Please report pIC50 as the negative decimal logarithm of the molar concentration, giving only the number.

Check out these entries, answers already filled in.
Cc1ccc2c3c(ccc2n1)OCC(CN1CC=C(c2cccc4ccsc24)CC1)O3 (centres unmarked) [Example 10]: 6.41
Cc1ccc2c3c(ccc2n1)OCC(CN1CC=C(c2csc4ccc(F)cc24)CC1)O3 (centres unmarked) [Example 3]: 6.36
Cc1ccc2c3c(ccc2n1)OCC(CN1CC=C(c2csc4ccccc24)CC1)O3 (centres unmarked) [Example 1]: 6.30

Give pIC50 (cloned human 5-HT1A receptors (Homo sapiens, UniProt P08908)) of the following compound: Cc1ccc2c3c(ccc2n1)OCC(CN1CC=C(c2cc4ccccc4o2)CC1)O3 (centres unmarked) [Example 11] 4.81

cloned human 5-HT1A receptors (Homo sapiens, UniProt P08908) / pIC50 / C1=C(c2csc3ccccc23)CCN(CC2COc3ccc4[nH]ccc4c3O2)C1 (centres unmarked) [Example 7] : value? 7.59

Test system cloned human 5-HT1A receptors (Homo sapiens, UniProt P08908); read-out pIC50; what value for Fc1ccc2scc(C3=CCN(CC4COc5ccc6ncccc6c5O4)CC3)c2c1 (centres unmarked) [Example 5] ? 6.00

Query for cloned human 5-HT1A receptors (Homo sapiens, UniProt P08908): what pIC50 does the record show for Fc1ccc2scc(C3=CCN(C[C@H]4COc5ccc6[nH]ccc6c5O4)CC3)c2c1 [Example 8] ? 6.83

Please tell me: pIC50 of COc1cccc2c(C3=CCN(C[C@H]4COc5ccc6nc(C)ccc6c5O4)CC3)coc12 [Example 4] , system cloned human 5-HT1A receptors (Homo sapiens, UniProt P08908)? 6.78

====

biological target: serotonin transporter (Rattus norvegicus, UniProt P31652); construct: displace ^3H-paroxetine from male rat frontal cortical membranes; from tissue; host or cells: male rat frontal cortex membranes; experiment: 3H-paroxetine displacement from rat frontal cortical membranes (serotonin transporter affinity); type: binding
Sequence (P31652 whole entry): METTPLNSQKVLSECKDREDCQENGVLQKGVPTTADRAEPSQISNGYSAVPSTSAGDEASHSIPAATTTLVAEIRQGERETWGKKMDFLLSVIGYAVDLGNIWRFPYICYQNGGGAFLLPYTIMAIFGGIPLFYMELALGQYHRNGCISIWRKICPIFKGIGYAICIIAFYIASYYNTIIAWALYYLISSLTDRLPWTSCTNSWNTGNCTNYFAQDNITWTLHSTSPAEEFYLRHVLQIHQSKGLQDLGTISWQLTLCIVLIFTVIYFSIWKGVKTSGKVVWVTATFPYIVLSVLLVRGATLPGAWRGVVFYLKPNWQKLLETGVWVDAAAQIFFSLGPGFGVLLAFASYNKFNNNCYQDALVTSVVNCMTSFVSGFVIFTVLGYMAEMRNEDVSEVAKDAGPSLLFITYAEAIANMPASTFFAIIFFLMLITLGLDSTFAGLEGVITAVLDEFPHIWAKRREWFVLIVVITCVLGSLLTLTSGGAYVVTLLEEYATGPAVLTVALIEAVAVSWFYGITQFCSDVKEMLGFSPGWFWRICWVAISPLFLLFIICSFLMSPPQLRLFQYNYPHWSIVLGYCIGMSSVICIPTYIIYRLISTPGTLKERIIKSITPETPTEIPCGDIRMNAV
pKi listing for selected compounds.
Lab note — pKi values are minus log10 of concentrations in M.

Worked examples follow.
Cc1ccc2c3c(ccc2n1)OCC(CN1CC=C(c2csc4ccc(Cl)cc24)CC1)O3 (stereo not drawn): 7.03
Cc1ccc2c3c(ccc2n1)OCC(CN1CC=C(c2csc4ccc(F)cc24)CC1)O3 (stereo not drawn): 7.73

Continue with the compound presented below.
What value of pKi on serotonin transporter (Rattus norvegicus, UniProt P31652) does Fc1ccc2scc(C3=CCN(CC4COc5ccc6ncccc6c5O4)CC3)c2c1 (stereo not drawn) have? 7.46

====

Listed here are molecules together with their documented pKi.
molecular target: human 5-HT1A receptors (Homo sapiens, UniProt P08908); construct: expressed in transfected cells; host or cells: CHO cells; assay: [3H] 8-OHDPAT displacement from 5-HT1A receptor in transfected CHO cells; type: binding
// pKi here means minus log10 of the molar concentration (mol/L)

Quick one: pKi for Fc1ccc2scc(C3=CCN(CC4COc5ccc6ncccc6c5O4)CC3)c2c1 (stereo not drawn) [Example 5] ? 7.63

Using the record for Cc1nc2ccc3c(c2o1)OC(CN1CC=C(c2csc4ccccc24)CC1)CO3 (stereo not drawn) [Example 9] , report its pKi. 7.69

Request the reported pKi associated with Cc1ccc2c3c(ccc2n1)OCC(CN1CC=C(c2csc4ccccc24)CC1)O3 (stereo not drawn) [Example 1] 8.31

# get_value(readout='pKi', item= COc1cccc2c(C3=CCN(C[C@H]4COc5ccc6nc(C)ccc6c5O4)CC3)coc12 [Example 4] ) 8.58

What pKi value was documented for this molecule, C1=C(c2csc3ccccc23)CCN(CC2COc3ccc4[nH]ccc4c3O2)C1 (stereo not drawn) [Example 7] ? 8.32

What value of pKi has been recorded for this entry: Cc1ccc2c3c(ccc2n1)OCC(CN1CC=C(c2cc4ccccc4o2)CC1)O3 (stereo not drawn) [Example 11] 7.80
